- targetOrTestSystem: T1, P-cadherin-ECD1-3-Fc protein (human P-cadherin-Fc) (human, UniProt P22223 108-440)
- T1 construct: Construct was expressed with signal peptide and pro-peptide (PACE co-transfected to process the propeptide); not shown: hinge and CH2 and CH3 domains of human IgG1
- T1 sequence (P22223 108-440): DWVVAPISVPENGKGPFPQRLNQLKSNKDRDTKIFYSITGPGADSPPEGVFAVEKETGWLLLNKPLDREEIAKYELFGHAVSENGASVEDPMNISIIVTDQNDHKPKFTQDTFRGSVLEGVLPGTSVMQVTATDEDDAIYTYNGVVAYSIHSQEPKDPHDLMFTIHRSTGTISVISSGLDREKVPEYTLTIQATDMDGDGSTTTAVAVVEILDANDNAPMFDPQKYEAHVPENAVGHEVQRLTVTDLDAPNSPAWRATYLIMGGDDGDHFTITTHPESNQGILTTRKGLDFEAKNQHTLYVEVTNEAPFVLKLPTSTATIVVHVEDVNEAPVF
- test: phage scFv ELISA, coated P-cadherin-ECD1-3-Fc
- Experimental: ScFvs may be expressed on the surface of a phage particle. […] P-cadherin-ECD1-3-Fc protein or negative control protein was coated overnight at 4° C. on 96-well Nunc Maxisorp® plates (Thermo Fisher Scientific, Madison, Conn.) at a concentration of 2 μg/mL in PBS+Ca²⁺ and Mg²⁺. […] Signal was developed using TMB (SurModics, Eden Prairie, Minn.), the reaction stopped with H₂SO₄ and the absorbance read at 450 nm on an EnVision® plate reader (Perkin Elmer, Waltham, Mass.).
% of binding of Clone #153 to human P-cadherin-Fc overview
recordedMetric: % of binding of Clone #153 to human P-cadherin-Fc (%)

[
  {
    "binder": "anti-P-cadherin scFv 153 alanine-mutant L1.12-Ala (scFv, V domains shown, scFv on phage) VH: EVQLVQSGAEVKKPGASVKVSCKASGYTFTSYGISWVRQAPGQGLEWMGWISAYNGNTNYAQKLQGRVTMTTDTSTSTAYMELRSLRSDDTAVYYCATIDTANAFGIWGQGTMVTVSS VL: QSVLTQPPSVSAAPGQKVTISCSGSSSNIGNNYASWYQQLPGTAPKLLIYDNNKRPSGIPDRFSGSKSGTSATLGITGLQTGDEADYYCGTWDSSLSGVVFGGGTKLTVL",
    "resultValue": 173
  },
  {
    "binder": "anti-P-cadherin scFv 153 alanine-mutant L1.13-Ala (scFv, V domains shown, scFv on phage) VH: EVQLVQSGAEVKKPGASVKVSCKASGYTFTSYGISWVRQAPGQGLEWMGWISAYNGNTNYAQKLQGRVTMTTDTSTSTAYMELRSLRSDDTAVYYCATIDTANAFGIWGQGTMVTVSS VL: QSVLTQPPSVSAAPGQKVTISCSGSSSNIGNNYVAWYQQLPGTAPKLLIYDNNKRPSGIPDRFSGSKSGTSATLGITGLQTGDEADYYCGTWDSSLSGVVFGGGTKLTVL",
    "resultValue": 171
  },
  {
    "binder": "anti-P-cadherin scFv 153 (parental clone 153), displayed on phage (scFv, V domains shown, scFv expressed on the surface of phage) VH: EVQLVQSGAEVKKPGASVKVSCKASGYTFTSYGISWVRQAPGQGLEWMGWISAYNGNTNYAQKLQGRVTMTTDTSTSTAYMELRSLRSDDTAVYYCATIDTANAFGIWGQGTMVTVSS VL: QSVLTQPPSVSAAPGQKVTISCSGSSSNIGNNYVSWYQQLPGTAPKLLIYDNNKRPSGIPDRFSGSKSGTSATLGITGLQTGDEADYYCGTWDSSLSGVVFGGGTKLTVL",
    "resultValue": 100
  },
  {
    "binder": "anti-P-cadherin scFv 153 alanine-mutant L2.3-Ala (scFv, V domains shown, scFv on phage) VH: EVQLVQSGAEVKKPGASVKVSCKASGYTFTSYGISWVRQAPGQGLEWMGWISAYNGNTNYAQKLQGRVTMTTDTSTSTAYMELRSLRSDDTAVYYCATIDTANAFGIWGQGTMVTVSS VL: QSVLTQPPSVSAAPGQKVTISCSGSSSNIGNNYVSWYQQLPGTAPKLLIYDNAKRPSGIPDRFSGSKSGTSATLGITGLQTGDEADYYCGTWDSSLSGVVFGGGTKLTVL",
    "resultValue": 74
  },
  {
    "binder": "anti-P-cadherin scFv 153 alanine-mutant L3.2-Ala (scFv, V domains shown, scFv on phage) VH: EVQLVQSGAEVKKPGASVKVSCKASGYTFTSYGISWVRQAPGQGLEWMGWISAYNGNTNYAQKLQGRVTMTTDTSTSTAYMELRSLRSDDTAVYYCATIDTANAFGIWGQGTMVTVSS VL: QSVLTQPPSVSAAPGQKVTISCSGSSSNIGNNYVSWYQQLPGTAPKLLIYDNNKRPSGIPDRFSGSKSGTSATLGITGLQTGDEADYYCGAWDSSLSGVVFGGGTKLTVL",
    "resultValue": 61
  }
]

Reference source for all entries: patent US20160002357A1
